# target.under.test: T1, recombinant human PD-1-his (Sino biological, #10377-H08H) (human, UniProt Q15116 25-167)
# T1 construct: Bought protein; also called Human PD-1-his protein; not shown: his tag
# protocol: SPR (Biacore T200), antibody captured, antigen flowed

{"columns": ["binder", "Kd"],
 "data": [
  ["mouse anti-PD-1 monoclonal antibody C1A1 (antibody, mouse IgG1, kappa, V domains shown, Purified from hybridoma; Constant regions tied only generically to 'mouse antibodies') VH: QVTLKESGPGILKPSQTLSLTCSFSGFSLSTSGMGVGWIRQPSGKGLEWLAHIWWDDDKFYNPSLKSQLTISKDTSRNQVFLKITSVDTADTATYYCARTGGFITTGYWYFDVWGAGTTVTVSS VL: DIQMTQTTSSLSASLGDRVTISCRASQDISNYLIWYQQKTDGTLKLLIYYTSRLHSGVPSRFSGSGSGTDYSLTISNLEQEDIATYFCQQHKTLPWTFGGGTKLEIKR", "1.13 nM"]
]}

Source: patent US12037395
